Molecular target: Replicase polyprotein 1ab (Severe acute respiratory syndrome coronavirus 2)
In this section we review reported log10 IC50 values for a set of molecules.
// stored as log10 of IC50 expressed in µM

Previously resolved entries follow.
smiles=C[C@@H](NC(=O)[C@@H](NC(=O)OC(C)(C)C)c1ccccc1)c1cccc2ccccc12 testedsystem="Replicase polyprotein 1ab (Severe acute respiratory syndrome coronavirus 2)" recordedmeasurement=1.12
smiles=COc1ccc(C(=O)N[C@H](C)c2cccc3ccccc23)cc1N testedsystem="Replicase polyprotein 1ab (Severe acute respiratory syndrome coronavirus 2)" recordedmeasurement=1.55
smiles=CCCN(CCC)C(=O)c1cccc(C(=O)N[C@H](C)c2cccc3ccccc23)c1 testedsystem="Replicase polyprotein 1ab (Severe acute respiratory syndrome coronavirus 2)" recordedmeasurement=1.20

I'd like to know its log10 IC50. The molecule in question is C[C@@H](NS(=O)(=O)c1cccc([N+](=O)[O-])c1)c1cccc2ccccc12
1.19

What about this molecule? COc1ccc(CNC(=O)C2CCN([C@H](C)c3cccc4ccccc34)CC2)cc1
-0.04

---

In this section we review reported pIC50 values for a set of molecules.
Target: Replicase polyprotein 1ab (Severe acute respiratory syndrome coronavirus 2, UniProt P0DTD1)
Answer as the number alone; pIC50 is minus log10 of concentration in mol/L.

smiles=C[C@@H](NS(=O)(=O)c1ccc([N+](=O)[O-])cc1)c1cccc2ccccc12 recordedmeasurement=5.20

// next item, pIC50 requested
I'd like to know its pIC50. The molecule in question is C[C@@H](NC(=O)[C@H](NC(=O)OC(C)(C)C)c1ccccc1)c1cccc2ccccc12
4.88

---

Tested on: SARS-CoV-2
Test: Antiviral activity against SARS-CoV-2 infected Chlorocebus sabaeus Vero E6 cells assessed as inhibition of viral replication
Assay type: functional
Settings: Severe acute respiratory syndrome coronavirus 2, Vero C1008; read-out: ID50 (the source's name)
experimentalEndpoint: pIC50
Answer as the number alone; pIC50 is minus log10 of concentration in mol/L.

smiles=COc1cccc(CNC(=O)C2CCN([C@H](C)c3ccc4ccccc4c3)CC2)c1 recordedmeasurement=4.57
smiles=COc1ccc([C@@H](C)NC(=O)c2cc(N)ccc2C)c2ccccc12 recordedmeasurement=4.44

I'd like to know its pIC50. The compound in question is C[C@@H](NC(=O)[C@@H](Cc1ccccc1)NC(=O)OC(C)(C)C)c1cccc2ccccc12
4.42

What about this compound? Cc1ccc(CN)cc1C(=O)N[C@H](C)c1cccc2ccccc12
4.62

---

Biological target: Replicase polyprotein 1ab (Severe acute respiratory syndrome-related coronavirus)
Assay: Inhibition of SARS-CoV-1 papain-like protease
In this section we review reported pIC50 values for a set of compounds.
Answer as the number alone; pIC50 is minus log10 of concentration in mol/L.

smiles=COc1ccc(CNC(=O)C2CCN([C@H](C)c3cccc4ccccc34)CC2)cc1 experimentalendpoint=pIC50 recordedmeasurement=6.25

I'd like to know its pIC50. The compound in question is COc1cccc(CNC(=O)C2CCN([C@H](C)c3ccc4ccccc4c3)CC2)c1
4.88

---

Test system: SARS-CoV-2
Assay: Antiviral activity against SARS-CoV-2 infected Chlorocebus sabaeus Vero E6 cells assessed as inhibition of viral replication
Type: functional
Conditions: Severe acute respiratory syndrome coronavirus 2, Vero C1008; read-out: ID50 (the source's name)
experimentalEndpoint: IC50 (µM)
All answers are understood in µM, so give the number only.

I'd like to know its IC50. The compound in question is CCCN(CCC)C(=O)c1cccc(C(=O)N[C@H](C)c2cccc3ccccc23)c1
15

What about this compound? COc1ccc(CNC(=O)C2CCN([C@H](C)c3cccc4ccccc34)CC2)cc1
17

What about this compound? C[C@@H](NC(=O)[C@H](N)Cc1c[nH]c2ccccc12)c1cccc2ccccc12
31
